Just for reference, patent US11807620B2 is where these values come from.

Reported values of Dmax at 10 µM for individual entries
Biological target: IKZF1 (Ikaros) (Homo sapiens, UniProt Q13422+Q96SW2)
Construct: mScarlet (C, cleaved yes); expressed in transfected cells
Sequence (Q13422 whole entry): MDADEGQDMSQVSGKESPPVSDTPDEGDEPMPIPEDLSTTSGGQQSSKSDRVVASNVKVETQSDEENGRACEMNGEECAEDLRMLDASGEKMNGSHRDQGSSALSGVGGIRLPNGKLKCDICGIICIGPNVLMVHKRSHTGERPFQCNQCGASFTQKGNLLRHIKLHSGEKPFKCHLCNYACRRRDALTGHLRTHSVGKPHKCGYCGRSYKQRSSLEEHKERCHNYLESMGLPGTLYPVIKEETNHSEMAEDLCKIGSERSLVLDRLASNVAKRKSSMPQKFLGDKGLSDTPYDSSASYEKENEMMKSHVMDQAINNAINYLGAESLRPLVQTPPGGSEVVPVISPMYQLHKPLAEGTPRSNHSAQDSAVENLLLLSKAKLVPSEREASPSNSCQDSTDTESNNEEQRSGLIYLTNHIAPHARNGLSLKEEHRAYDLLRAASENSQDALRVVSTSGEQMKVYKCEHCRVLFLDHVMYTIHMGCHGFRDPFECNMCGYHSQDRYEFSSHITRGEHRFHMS
Sequence (Q96SW2 whole entry): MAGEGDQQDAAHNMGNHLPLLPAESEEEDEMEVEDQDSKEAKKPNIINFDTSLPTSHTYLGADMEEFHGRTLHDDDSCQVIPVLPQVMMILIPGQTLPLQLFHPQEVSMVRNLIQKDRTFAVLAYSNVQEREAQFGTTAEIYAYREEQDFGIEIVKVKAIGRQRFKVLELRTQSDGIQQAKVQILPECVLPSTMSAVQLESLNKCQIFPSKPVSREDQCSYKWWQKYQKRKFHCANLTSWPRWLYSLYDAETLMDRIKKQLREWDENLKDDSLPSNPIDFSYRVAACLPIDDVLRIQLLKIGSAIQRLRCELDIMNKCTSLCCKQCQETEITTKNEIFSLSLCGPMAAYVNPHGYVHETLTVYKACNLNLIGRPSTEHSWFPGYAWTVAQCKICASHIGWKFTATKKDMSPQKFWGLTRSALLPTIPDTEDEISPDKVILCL
Sequence (Q16531 whole entry partner): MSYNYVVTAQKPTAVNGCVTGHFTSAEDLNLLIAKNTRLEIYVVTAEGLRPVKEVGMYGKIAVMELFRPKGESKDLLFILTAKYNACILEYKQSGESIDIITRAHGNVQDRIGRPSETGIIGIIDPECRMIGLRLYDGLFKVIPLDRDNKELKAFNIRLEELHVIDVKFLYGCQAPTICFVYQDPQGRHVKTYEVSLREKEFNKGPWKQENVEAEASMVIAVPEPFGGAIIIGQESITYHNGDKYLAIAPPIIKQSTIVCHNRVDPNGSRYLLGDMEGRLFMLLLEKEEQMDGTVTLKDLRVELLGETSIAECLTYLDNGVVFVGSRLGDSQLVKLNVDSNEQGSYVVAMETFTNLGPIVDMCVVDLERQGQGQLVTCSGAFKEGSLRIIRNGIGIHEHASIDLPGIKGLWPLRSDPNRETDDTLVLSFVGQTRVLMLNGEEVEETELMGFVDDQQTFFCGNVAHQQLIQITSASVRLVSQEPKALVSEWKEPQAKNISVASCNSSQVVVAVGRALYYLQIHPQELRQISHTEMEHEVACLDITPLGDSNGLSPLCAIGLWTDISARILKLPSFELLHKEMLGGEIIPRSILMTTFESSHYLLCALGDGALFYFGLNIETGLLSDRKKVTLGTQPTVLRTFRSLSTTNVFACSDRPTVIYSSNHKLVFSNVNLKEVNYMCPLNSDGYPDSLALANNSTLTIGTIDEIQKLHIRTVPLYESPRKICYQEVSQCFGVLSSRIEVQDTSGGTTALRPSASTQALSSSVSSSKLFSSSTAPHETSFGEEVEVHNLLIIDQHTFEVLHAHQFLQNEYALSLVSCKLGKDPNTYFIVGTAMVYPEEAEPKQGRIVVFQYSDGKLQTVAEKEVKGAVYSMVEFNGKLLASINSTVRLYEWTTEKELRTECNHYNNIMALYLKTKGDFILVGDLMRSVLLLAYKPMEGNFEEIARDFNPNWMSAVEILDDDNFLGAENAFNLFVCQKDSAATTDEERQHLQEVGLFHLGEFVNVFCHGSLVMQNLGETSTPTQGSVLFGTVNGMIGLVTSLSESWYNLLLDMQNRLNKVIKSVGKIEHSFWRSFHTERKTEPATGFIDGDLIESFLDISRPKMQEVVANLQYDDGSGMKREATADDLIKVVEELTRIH
Experiment: Stable cell line fluorescent reporter degradation assay, IKZF1
Assay type: cell-based
Conditions: 10 micromolar; HEK 293T IKZF1-mNeonGreen reporter cells; 24 hour incubation; calculated visually from the curves
Expressed in %, but write only the number.

Check out these entries, answers already filled in.
Cc1nc2cccc(NCc3ccc(CN4CCOCC4)cc3)c2c(=O)n1C1CCC(=O)NC1=O (stereo not shown) : 93.8
Cc1nc2cccc(NCc3ccc(CN4CCN(c5ccc(C#N)cc5F)CC4)cc3)c2c(=O)n1C1CCC(=O)NC1=O (stereo not shown) : 93.1
COc1ccc(CNc2cccc3nc(C)n(C4CCC(=O)NC4=O)c(=O)c23)cc1 (stereo not shown) : 89.1

Okay, next one:
In: Give the measured Dmax at 10 µM of Cc1nc2cccc(NCc3cccc(CN4CCN(c5ccc(C#N)cc5F)CC4)c3)c2c(=O)n1C1CCC(=O)NC1=O (stereo not shown) .
Out: 95.5
